- protocol_text: reduction of polyQ htt aggregates in cells – imaging, exon1htt(103Q)mCFP cells, high-content imaging, primary screen (AID 483);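 further: compound exposure lasted 3 days before fixation; percent of the per-plate median nuclei count of sample wells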
- conditions_used: exon1htt(103Q)mCFP cell line, aggregate imaging, at 2 µM; measured here: cell count, toxicity
parameter_measured: nuclei count (%)

- compound: "COc1ccc(-n2c(Cc3cccn3C)nnc2SCC(=O)Nc2cccc(C)c2C)cc1"
  measured: 105
- compound: "CCC(=O)Nc1ccc(NC(=O)c2cccc(OC)c2)nc1"
  measured: 105
- compound: "CCN(CC)S(=O)(=O)c1ccc2oc(SCc3ccc(F)cc3)nc2c1"
  measured: 104
- compound: "CCOc1ccc(-c2nc(C#N)c(N3CCCCCC3)o2)cc1"
  measured: 110
- compound: "O=C1CCc2cc(S(=O)(=O)N3CCC(C(=O)NCc4ccccn4)CC3)ccc2N1"
  measured: 115
- compound: "Cc1cc(NC(=O)c2cnn3c(C(F)F)cc(C4CC4)nc23)no1"
  measured: 100
- compound: "CCCOc1ccccc1C1CC(=O)Nc2cc3c(cc21)OCCO3 (configuration not stated)"
  measured: 39.3
- compound: "CSCCC(C(=O)Nc1ccc2c(c1)OCO2)N1C(=O)c2ccccc2C1=O (configuration not stated)"
  measured: 96.3
- compound: "CC(=O)Nc1ccc(S(=O)(=O)NCc2csc(-c3cccnc3)n2)cc1"
  measured: 108
- compound: "COC(=O)c1c(C#N)c(N)nc2c1CCC2"
  measured: 80.9
- compound: "C=CCn1c(-c2cccs2)nc2nc3ccccc3nc21"
  measured: 90.1
- compound: "O=C(Nc1nnc(CCN2CCCCC2)s1)C1CCCCC1"
  measured: 113
- compound: "CCN(CC)CCOc1cccc(C(C)C)c1"
  measured: 104
- compound: "O=C(c1ncn[nH]1)N1CCN(c2nc(-c3ccccc3)cs2)CC1"
  measured: 68.1
- compound: "CCc1nn2c(=O)cc(CSc3nc4sc5c(c4c(=O)n3C)CCCC5)nc2s1"
  measured: 118
- compound: "COCCN1Cc2cccc(C(=O)Nc3cccnc3)c2C1=O"
  measured: 100
- compound: "CSc1c(C#N)c(N)c(C#N)c2c1COC(C)(C)C2"
  measured: 83
- compound: "O=C(CSc1ncnc2c1oc1ccccc12)NCc1ccco1"
  measured: 99.3
- compound: "CC1CN(C(=O)c2scc3c2OCCO3)CC(C)O1 (configuration not stated)"
  measured: 75
- compound: "O=C(c1cc(S(=O)(=O)N2CCOCC2)ccc1F)N1CCCc2ccccc21"
  measured: 102
- compound: "CC(=O)c1ccc(OC(=O)c2cccs2)cc1"
  measured: 99.1
- compound: "CCCCP(=O)(CCCC)c1ccccc1C(=O)O"
  measured: 81.7
- compound: "COc1ccc(N2CCN(c3ccc(N)cc3C#N)CC2)cc1"
  measured: 102
- compound: "COc1cc2c(cc1NC(=O)CN1CCN(S(=O)(=O)c3ccc(F)cc3)CC1)oc1ccccc12"
  measured: 95.8
- compound: "CCn1c(SCC(=O)c2ccc(C)cc2)nnc1-c1ccoc1C"
  measured: 77.4
- compound: "Cc1cc(NCCN2CCCCC2)n2c(nc3ccccc32)c1C#N"
  measured: 61.6
- compound: "COC(=O)C(C)NC(=O)C12CC3CC(CC(C3)C1)C2 (configuration not stated)"
  measured: 103
- compound: "COc1cccc2cc(C(=O)C3=C(O)C(=O)N(CCCN4CCOCC4)C3c3ccncc3)oc12 (configuration not stated)"
  measured: 103
- compound: "c1cn(C23CC4CC(CC(C4)C2)C3)cn1"
  measured: 108
- compound: "Cc1ccnc(NC(=O)CCC(=O)N(CC(=O)NC(C)(C)C)C2CCCC2)c1"
  measured: 113
- compound: "CC(C)C(=O)Nc1ccc(C(=O)NCc2cccnc2)cc1"
  measured: 102
- compound: "O=C(COC(=O)c1cnccn1)c1ccc(OC(=O)c2ccccc2)cc1"
  measured: 95.2
- compound: "COc1ccc2c(CC(=O)Nc3ccc(OC)c(NS(=O)(=O)c4ccc(F)cc4)c3)coc2c1"
  measured: 116
- compound: "CCOc1ccc(N(CC(=O)NC2CCCCC2)S(=O)(=O)c2c(C)noc2C)cc1"
  measured: 117
- compound: "O=c1[nH]c(N2CCCCC2)nc2c1CCCC2"
  measured: 107
- compound: "Cn1cc(CN2CCc3ccccc3C2)c2ccccc21"
  measured: 146
- compound: "CN(c1ccccc1C(=O)N1CCN(c2cccc(Cl)c2)CC1)S(C)(=O)=O"
  measured: 101
- compound: "O=C(NC(C(=O)c1ccccc1)N1CCOCC1)c1cccs1 (configuration not stated)"
  measured: 72.3
- compound: "CCN1C(=O)C(C(=O)Nc2ccc(OC)cc2)C2CC1(C)Oc1ccccc12 (configuration not stated)"
  measured: 104
- compound: "O=C(CSc1ncnc2c1oc1ccccc12)Nc1ccccc1F"
  measured: 107
- compound: "COc1ccc(S(=O)(=O)NCCC(=O)NC2CCCCCCC2)cc1"
  measured: 95
- compound: "COc1cccc(C2CC(c3ccc(F)cc3)Nc3nc(N)nn32)c1 (configuration not stated)"
  measured: 105
- compound: "CN(Cc1cccs1)C(=O)CCc1ccc(S(=O)(=O)N2CCOCC2)cc1"
  measured: 94
- compound: "Cc1cc(C(=O)OCC(=O)N2c3ccccc3CC2C)c(C)o1 (configuration not stated)"
  measured: 85.1
- compound: "Cc1cc(C)n2nc[n+](C)c2n1"
  measured: 103
- compound: "CCOC(=O)c1ccc(NC(=O)CSC2=NC(=O)C(CC)C(=O)N2)cc1 (configuration not stated)"
  measured: 83.8
- compound: "COc1ccc(C(CNC(=O)c2cc(C)oc2C)N2CCOCC2)cc1 (configuration not stated)"
  measured: 103
